Tested on: 598228-144-R-J1-PDC complex spheroid viability;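 also: spheroids exposed to the agents for one week before reading; percent of vehicle DMSO control viability so 100% = untreated growth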
Assay: Anticancer human tumor 598228-144-R-J1-PDC patient-derived serous endometrial adenocarcinoma cell line growth inhibition [GQUAD]
Settings: second compound 0.0316 µM; first compound 10 µM; active compounds read low
Overview of reported viability, T/C across a group of compounds:
Output spec: scalar in %, unitless text.

The compound O=C(NO)c1cnc(N2CCN(S(=O)(=O)c3ccc4ccccc4c3)CC2)nc1 + Cc1cnc(CNC(=O)c2c(=O)c3ccc(N4CCCN(C)CC4)nc3n3c2sc2ccccc23)cn1 , tested on 598228-144-R-J1-PDC complex spheroid viability, showed viability, T/C of 0.19

The compound CCCS(=O)(=O)Nc1ccc(F)c(C(=O)c2c[nH]c3ncc(-c4ccc(Cl)cc4)cc23)c1F + CN(C)c1ccc(Nc2c3ccc(NC(=O)CCN4CCCC4)cc3nc3cc(NC(=O)CCN4CCCC4)ccc23)cc1 , tested on 598228-144-R-J1-PDC complex spheroid viability, showed viability, T/C of 34.8

The compound CC1COCCN1c1cc(-c2ccnn2C)c2ccnc(-c3ccn[nH]3)c2n1 (stereo not drawn) + Cc1[nH]c2ccc(F)cc2c1-c1nc2c3cccnc3c3ncccc3c2[nH]1 , tested on 598228-144-R-J1-PDC complex spheroid viability, showed viability, T/C of 36
